- tested-target: Human adrenergic α1B receptor (Homo sapiens)
- method: β-Arrestin GPCR functional assay, adrenergic α1B (Protocol B)
- Type: cell-based
- conditions: 0.3 μM compound; nor-epinephrine at EC80 (50 nM)
- Description: To evaluate the activity of compounds in β-Arrestin GPCR functional assays, recombinant CHO cell line (DiscoveRX), over expressed with human adrenergic α1B receptor were used. The experiment was done with a kit of DiscoveRX as per recommended protocol of the supplier. […] The reading was taken in Envision at luminescence mode. […]
property-name: Percentage inhibition, Adrenergic α1B (%)

Worked cases, Percentage inhibition, Adrenergic α1B given:
>>> reported_result("Cc1ccc2c(c1)c1c(n2CC(C)(O)c2ccncc2)CCN2CCCC12 (single isomer, unassigned) [13b]")
61
>>> reported_result("Cc1cc(C)c2c(c1)c1c(n2CC(C)(O)c2ccncc2)CCN2CCCC12 (single isomer, unassigned) [19a]")
74

P. Cc1ccc2c(c1)c1c(n2CC(O)c2ccncc2F)CCN2CCCC12 (single isomer, unassigned) [14b]
Q. Cc1cc(C)c2c(c1)c1c(n2CC(C)(O)c2ccncc2)CCN2CCCC12 (single isomer, unassigned) [19b]
Which has the smaller recorded Percentage inhibition, Adrenergic α1B, P or Q ? Select an item and report its label.
Q

---

Endpoint: Ki. System: Human adrenergic α1B receptor (Homo sapiens, UniProt P35368). Items follow.
Sequence (P35368 whole entry): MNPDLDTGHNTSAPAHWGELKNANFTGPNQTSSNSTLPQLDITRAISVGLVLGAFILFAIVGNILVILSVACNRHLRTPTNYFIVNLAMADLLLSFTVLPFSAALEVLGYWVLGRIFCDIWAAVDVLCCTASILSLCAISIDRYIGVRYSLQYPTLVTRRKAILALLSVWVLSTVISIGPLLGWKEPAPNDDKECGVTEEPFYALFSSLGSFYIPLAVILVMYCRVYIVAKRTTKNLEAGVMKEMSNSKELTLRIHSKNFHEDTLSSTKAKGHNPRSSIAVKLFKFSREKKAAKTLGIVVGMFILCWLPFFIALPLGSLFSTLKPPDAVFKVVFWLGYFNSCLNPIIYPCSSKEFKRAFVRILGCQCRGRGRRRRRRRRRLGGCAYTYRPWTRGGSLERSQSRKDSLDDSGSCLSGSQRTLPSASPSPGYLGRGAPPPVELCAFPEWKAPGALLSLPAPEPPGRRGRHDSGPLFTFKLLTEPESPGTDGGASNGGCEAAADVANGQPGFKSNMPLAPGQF
property-name: Ki (nM)

Worked cases, Ki given:
>>> reported_result("Cc1cc(F)c2c(c1)c1c(n2CC(O)c2ccncc2)CCN2CCCC12 (single isomer, unassigned) [137b]")
7.3
>>> reported_result("CCOC(Cn1c2c(c3cc(C)ccc31)CN(C)CC2)c1ccncc1 (single isomer, unassigned) [43b]")
278
>>> reported_result("Cc1cc(C)c2c(c1)c1c(n2CC(C)(O)c2cccnc2)CCN2CCCC12 (single isomer, unassigned) [44b]")
14

1. Cc1ccc2c(c1)c1c(n2CC(C)(O)c2cccnc2)CC2CCCN2C1 (single isomer, unassigned) [38b]
2. Cc1ccc2c(c1)c1c(n2CC(OCC2CCC2)c2ccncc2)CCN(C)C1 (single isomer, unassigned) [59a]
3. Cc1ccc2c(c1)c1c(n2CC(OC2CCCC2)c2ccncc2)CCN(C)C1 (single isomer, unassigned) [35a]
4. Cc1ccc2c(c1)c1c(n2C[C@@H](OC2CCCC2)c2ccncc2)CCN2CCC[C@H]12
Put the items in sequence by Ki, from largest down. Give the labels in the order specified.
1, 3, 4, 2

---

Protein target, amino acids: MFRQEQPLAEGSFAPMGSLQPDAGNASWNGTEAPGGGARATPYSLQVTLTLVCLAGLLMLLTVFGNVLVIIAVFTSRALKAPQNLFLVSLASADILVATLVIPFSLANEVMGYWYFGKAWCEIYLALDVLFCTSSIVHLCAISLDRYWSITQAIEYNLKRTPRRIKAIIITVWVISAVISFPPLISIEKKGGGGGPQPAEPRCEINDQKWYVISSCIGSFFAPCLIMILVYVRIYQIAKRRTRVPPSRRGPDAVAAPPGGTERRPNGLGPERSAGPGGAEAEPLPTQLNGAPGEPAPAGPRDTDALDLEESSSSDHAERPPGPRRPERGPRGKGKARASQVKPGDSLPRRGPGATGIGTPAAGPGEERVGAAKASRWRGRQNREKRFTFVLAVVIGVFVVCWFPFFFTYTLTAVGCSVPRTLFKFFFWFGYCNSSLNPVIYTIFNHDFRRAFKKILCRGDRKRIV
property-name: Ki (nM)

>>> reported_result("Cc1cc(Cl)c2c(c1)c1c(n2CC(C)(O)c2ccncc2)CCN2CCCC12 (single isomer, unassigned) [91b]")
28.4

a. Cc1cc(F)c2c(c1)c1c(n2CC(O)c2ccncc2)CCN2CCCC12 (single isomer, unassigned) [137b]
b. Cc1cc(C)c2c(c1)c1c(n2CC(C)(O)c2cccnc2)CCN2CCCC12 (single isomer, unassigned) [44b]
c. Cc1ccc2c(c1)c1c(n2CC(C)(O)c2ccnc(F)c2)CCN2CCCC12 (single isomer, unassigned) [48b]
d. CCCOC(Cn1c2c(c3cc(C)ccc31)CN(C)CC2)c1ccncc1 (single isomer, unassigned) [42a]
Put the items in sequence by Ki, from largest down. Give the labels in the order specified.
d, c, b, a
(d: 55 nM, c: 16.4 nM, b: 6.2 nM, a: 2.4 nM)

P. Cc1ccc2c(c1)c1c(n2CC(O)c2ccncc2)CC[N+]2([O-])CCCC12 (stereo not shown) [compound 23]
Q. Cc1cc2c3c(n(CC(C)(O)c4ccncc4)c2cc1Cl)CCN1CCCC31 (single isomer, unassigned) [50b]
R. CCOC(Cn1c2c(c3cc(C)ccc31)CN(C)CC2)c1ccncc1 (single isomer, unassigned) [43b]
Arrange these 3 compounds in increasing order of Ki. Give the labels in the order specified.
Q, P, R

I. Cc1cc(F)c2c(c1)c1c(n2CC(C)(O)c2ccncc2)CCN2CCCC12 (single isomer, unassigned) [81a]
II. Cc1ccc2c(c1)c1c(n2CC(OC2CCCC2)c2ccncc2)CCN(C)C1 (single isomer, unassigned) [35a]
Which has the smaller recorded Ki, I or II ? Select an item and report its label.
I

a. Cc1cc(F)cc2c3c(n(CC(C)(O)c4cccnc4)c12)CCN1CCCC31 (single isomer, unassigned) [75c]
b. Cc1cc(F)c2c(c1)c1c(n2CC(C)(O)c2cccnc2)CCN2CCCC12 (stereo not shown) [Compound No. 79a]
c. Cc1ccc2c(c1)c1c(n2CC(C)(O)c2cccnc2)CC2CCCN2C1 (single isomer, unassigned) [38b]
d. Cc1ccc2c(c1)c1c(n2CC(OCC2CCC2)c2ccncc2)CCN2CCCC12 (single isomer, unassigned) [138a]
Arrange these 4 compounds in increasing order of Ki. Give the labels in the order specified.
d, b, a, c
(d: 2.2 nM, b: 10.6 nM, a: 24.5 nM, c: 291 nM)

P. Cc1ccc2c(c1)c1c(n2CC(C)(O)c2ccncc2)CCN2CCCC12 (single isomer, unassigned) [13a]
Q. CC(O)(Cn1c2c(c3cc(F)cc(Cl)c31)C1CCCN1CC2)c1cccnc1 (single isomer, unassigned) [89d]
R. CC(O)(Cn1c2c(c3cc(Cl)cc(F)c31)C1CCCN1CC2)c1ccncc1 (single isomer, unassigned) [52a]
Put the items in sequence by Ki, from largest down. Give the labels in the order specified.
P, Q, R

A. OC(Cn1c2c(c3cc(Cl)cc(F)c31)C1CCCN1CC2)c1ccncc1 (single isomer, unassigned) [135a]
B. CC(O)(Cn1c2c(c3cc(F)cc(Cl)c31)C1CCCN1CC2)c1ccncc1 (single isomer, unassigned) [88a]
Given the listed records, identify the one among A and B with higher Ki. Select an item and report its label.
A
(A: 66.1 nM, B: 43.9 nM)

A. CCOC(Cn1c2c(c3cc(C)ccc31)CN(C)CC2)c1ccncc1 (single isomer, unassigned) [43a]
B. Cc1ccc2c(c1)c1c(n2CC(O)c2ccncc2F)CCN2CCCC12 (single isomer, unassigned) [14a]
Given the listed records, identify the one among A and B with higher Ki. Select an item and report its label.
B

I. OC(Cn1c2c(c3cc(F)ccc31)C1CCCN1CC2)c1ccncc1 (single isomer, unassigned) [18b]
II. Cc1ccc2c(c1)c1c(n2CC(O)c2ccncc2)CNC2CCCC12 (single isomer, unassigned) [34c]
III. Cc1cc(F)c2c(c1)c1c(n2CC(C)(O)c2ccncc2)CCN2CCCC12 (single isomer, unassigned) [81b]
IV. Cc1ccc2c(c1)c1c(n2CC(OC(=O)N2CCCC2)c2ccncc2)CCN(C)C1 (single isomer, unassigned) [4b]
Put the items in sequence by Ki, from largest down. Give the labels in the order specified.
II, IV, I, III
